The measurements presented in this section are drawn from ChEMBL document CHEMBL4011582.

target: Bile salt export pump (Homo sapiens); assay: Inhibition of BSEP (unknown origin); format: ADME
reportedEndpoint: pIC50
Quick note: pIC50 means taking -log10 of the concentration in moles per liter.

Task: Observed pIC50 on Bile salt export pump (Homo sapiens) for CCOC(=O)[C@@]1(CCCCCCOc2ccc(Cl)cc2)CO1 [ETOMOXIR] , please.
Result: 4.93

----------
biological target: Bile salt export pump (Homo sapiens); test: Inhibition of recombinant human BSEP expressed in baculovirus infected sf9 cell plasma membrane vesicles assessed as reduction in ATP-dependent [3H]-taurocholate uptake in to vesicles preincubated for 10 mins followed by ATP addition measured after 10 to 15 mins by TopCount method; format: ADME
reportedEndpoint: pIC50
Quick note: pIC50 means taking -log10 of the concentration in moles per liter.

Task: Hello, I am looking for reported pIC50 with Bile salt export pump (Homo sapiens) for CN(CCOc1ccc(CC2SC(=O)NC2=O)cc1)c1ccccn1 (stereo unspecified) [ROSIGLITAZONE] . Could you help?
Result: 5.43

----------
test: clinical; conditions: human
reportedEndpoint: Cmax (nM)
Report the value in nM with no unit label.

Task: Quick one: Cmax for `C#C[C@]1(O)CC[C@H]2[C@@H]3CCC4=Cc5oncc5C[C@]4(C)[C@H]3CC[C@@]21C` ?
Result: 750

Task: Fill in: Cmax of `CCOC(=O)c1ncn2c1CN(C)C(=O)c1cc(F)ccc1-2` is ___
Result: 1120

Task: Look at this compound and give its reported Cmax. `Cc1c(O)cccc1C(=O)N[C@@H](CSc1ccccc1)[C@H](O)CN1C[C@H]2CCCC[C@H]2C[C@H]1C(=O)NC(C)(C)C`
Result: 7040

Task: Which Cmax value belongs to COC(=O)C1=C(C)NC(C)=C(C(=O)OCCN(C)Cc2ccccc2)C1c1cccc([N+](=O)[O-])c1 (configuration not stated) ?
Result: 81

Task: Query: Cmax; subject: NS(=O)(=O)c1cc(C(=O)O)c(NCc2ccco2)cc1Cl [FUROSEMIDE]
Result: 18100

Task: Data request, read-out Cmax, for `CNC(=O)c1cc(Oc2ccc(NC(=O)Nc3ccc(Cl)c(C(F)(F)F)c3)cc2)ccn1`
Result: 132

Task: What value of measured Cmax is listed for `CO[C@H]1/C=C/O[C@@]2(C)Oc3c(C)c(O)c4c(O)c(cc(O)c4c3C2=O)NC(=O)/C(C)=C\C=C\[C@H](C)[C@H](O)[C@@H](C)[C@@H](O)[C@@H](C)[C@H](OC(C)=O)[C@@H]1C` ?
Result: 2780

----------
assay: clinical; details: human
So I've got a bunch of compounds here, and I need their log10(Cmax) values.
# log10 transformed; quantity=Cmax; unit=nM

Task: For the compound COc1ccc(Cl)cc1C(=O)NCCc1ccc(S(=O)(=O)NC(=O)NC2CCCCC2)cc1 [GLYBURIDE] , what log10(Cmax) is on record?
Result: 2.32

Task: Any idea what log10(Cmax) was measured for `Cc1ccc(N(CC2=NCCN2)c2cccc(O)c2)cc1` ?
Result: 1.93

Task: Endpoint output: log10(Cmax) of CC(C)C(=O)Nc1ccc([N+](=O)[O-])c(C(F)(F)F)c1 [FLUTAMIDE] . Value?
Result: 2.56

Task: Would you kindly share the measured log10(Cmax) for CC(C)(C)NCC(O)c1ccc(O)c(CO)c1 (stereo not drawn) ?
Result: 1.76

Task: Record request: log10(Cmax) value, item `CC1=C(/C=C/C(C)=C/C=C/C(C)=C\C(=O)O)C(C)(C)CCC1`
Result: 3.46

Task: Please look up its log10(Cmax): CCC(=O)O[C@H]1[C@H](O[C@@H]2[C@@H](C)[C@H](O[C@H]3C[C@@](C)(OC)[C@@H](O)[C@H](C)O3)[C@@H](C)C(=O)O[C@H](CC)[C@@](C)(O)[C@H](O)[C@@H](C)C(=O)[C@H](C)C[C@@]2(C)O)O[C@H](C)C[C@@H]1N(C)C.CCCCCCCCCCCCOS(=O)(=O)O [ERYTHROMYCIN ESTOLATE]
Result: 3.62

Task: Tell me the measured log10(Cmax) of CC(CCc1ccc(O)cc1)NCCc1ccc(O)c(O)c1 (stereo not drawn) , please.
Result: 3.13

Task: Given the entry `Cc1cccc(Nc2ccccc2C(=O)O)c1C` , report its measured log10(Cmax).
Result: 4.43

Task: Field request: log10(Cmax) | item: `O=C1CC2(CCCC2)CC(=O)N1CCCCN1CCN(c2ncccn2)CC1`
Result: 0.70

Task: Query (compound): `CO[C@H]1/C=C/O[C@@]2(C)Oc3c(C)c(O)c4c(c3C2=O)C2=NC3(CCN(CC(C)C)CC3)NC2=C(NC(=O)/C(C)=C\C=C\[C@H](C)[C@H](O)[C@@H](C)[C@@H](O)[C@@H](C)[C@H](OC(C)=O)[C@@H]1C)C4=O` ; field requested: log10(Cmax)
Result: 2.84

Task: Report log10(Cmax) for CCC(=O)O[C@]1(C(=O)CCl)[C@@H](C)C[C@H]2[C@@H]3CCC4=CC(=O)C=C[C@]4(C)[C@@]3(F)[C@@H](O)C[C@@]21C [CLOBETASOL PROPIONATE] please.
Result: 1.63

Task: log10(Cmax) lookup needed for CC(=O)N1CCN(c2ccc(OCC3COC(Cn4ccnc4)(c4ccc(Cl)cc4Cl)O3)cc2)CC1 (stereo not drawn) , thanks.
Result: 4.10

Task: For `CO[C@H]1/C=C/O[C@@]2(C)Oc3c(C)c(O)c4c(O)c(c(/C=N/N5CCN(C)CC5)c(O)c4c3C2=O)NC(=O)/C(C)=C\C=C\[C@H](C)[C@H](O)[C@@H](C)[C@@H](O)[C@@H](C)[C@H](OC(C)=O)[C@@H]1C` , what is its reported log10(Cmax)?
Result: 3.93

----------
Hi there, I'd appreciate the recorded pIC50 for every entry that follows.
biological target: Bile salt export pump (Homo sapiens); assay: Inhibition of recombinant human BSEP expressed in baculovirus infected sf21 cell plasma membrane vesicles assessed as reduction in ATP-dependent [3H]-taurocholate uptake in to vesicles after 5 mins by microbeta filtration method; format: ADME
pIC50: −log10 of the molar value.

Task: Form entry - test system: Bile salt export pump (Homo sapiens); read-out: pIC50; molecule: `CN[C@@H]1[C@H](O[C@H]2[C@H](O[C@H]3[C@H](O)[C@@H](O)[C@H](N=C(N)N)[C@@H](O)[C@@H]3N=C(N)N)O[C@@H](C)[C@]2(O)C=O)O[C@@H](CO)[C@H](O)[C@H]1O`
Result: < 3.00

Task: Lookup: pIC50 / Bile salt export pump (Homo sapiens) / `C[N+](C)(C)CC(=O)O`
Result: < 3.00

----------
target: Bile salt export pump (Homo sapiens, UniProt O95342); type: ADME; details: read-out: IC50
Sequence (O95342 whole entry): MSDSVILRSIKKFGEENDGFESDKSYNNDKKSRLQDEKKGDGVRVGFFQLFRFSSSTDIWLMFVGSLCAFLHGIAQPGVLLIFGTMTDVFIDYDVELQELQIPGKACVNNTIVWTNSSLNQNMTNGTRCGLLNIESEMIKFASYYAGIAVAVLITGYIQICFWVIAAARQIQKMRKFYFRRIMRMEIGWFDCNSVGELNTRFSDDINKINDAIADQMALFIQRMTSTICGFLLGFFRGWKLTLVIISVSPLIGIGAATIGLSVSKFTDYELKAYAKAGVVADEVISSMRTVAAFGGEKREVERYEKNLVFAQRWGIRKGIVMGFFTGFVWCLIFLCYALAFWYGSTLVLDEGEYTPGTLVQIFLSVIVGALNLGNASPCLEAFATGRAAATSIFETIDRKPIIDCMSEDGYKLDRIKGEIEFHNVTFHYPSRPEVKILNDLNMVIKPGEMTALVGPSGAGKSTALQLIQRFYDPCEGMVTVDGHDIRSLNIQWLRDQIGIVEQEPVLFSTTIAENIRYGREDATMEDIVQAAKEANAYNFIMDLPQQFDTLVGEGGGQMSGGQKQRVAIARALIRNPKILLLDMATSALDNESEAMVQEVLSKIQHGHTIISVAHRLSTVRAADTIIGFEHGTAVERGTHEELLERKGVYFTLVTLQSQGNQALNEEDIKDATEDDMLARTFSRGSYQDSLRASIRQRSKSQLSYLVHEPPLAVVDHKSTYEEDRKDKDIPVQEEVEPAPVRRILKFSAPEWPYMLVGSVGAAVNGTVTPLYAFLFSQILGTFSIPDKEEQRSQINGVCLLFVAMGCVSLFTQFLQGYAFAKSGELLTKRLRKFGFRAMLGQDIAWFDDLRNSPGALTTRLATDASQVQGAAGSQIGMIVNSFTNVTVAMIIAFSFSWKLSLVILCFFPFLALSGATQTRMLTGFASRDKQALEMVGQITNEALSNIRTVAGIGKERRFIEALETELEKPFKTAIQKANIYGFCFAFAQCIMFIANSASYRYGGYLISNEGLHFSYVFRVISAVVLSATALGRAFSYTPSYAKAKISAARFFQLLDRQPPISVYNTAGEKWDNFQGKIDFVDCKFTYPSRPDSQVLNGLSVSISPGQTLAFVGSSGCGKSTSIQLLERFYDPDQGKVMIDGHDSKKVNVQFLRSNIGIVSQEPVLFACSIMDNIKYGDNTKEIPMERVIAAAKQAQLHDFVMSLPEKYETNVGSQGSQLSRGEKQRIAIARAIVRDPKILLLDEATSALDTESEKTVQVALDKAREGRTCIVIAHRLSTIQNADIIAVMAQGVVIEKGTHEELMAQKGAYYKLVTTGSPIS
reportedEndpoint: IC50

Task: So what's the measured IC50 for this one? C[C@@H]1C[C@H]2[C@@H]3CCC4=CC(=O)C=C[C@]4(C)[C@@]3(Cl)[C@@H](O)C[C@]2(C)[C@@]1(O)C(=O)CCl [MOMETASONE]
Result: 9.3 µM

Task: Please look up its IC50: CC(O)(CS(=O)(=O)c1ccc(F)cc1)C(=O)Nc1ccc(C#N)c(C(F)(F)F)c1 (centres undefined) [BICALUTAMIDE]
Result: 29.3 µM

Task: Suppose we examine the compound CN(C)C(=O)C(CCN1CCC(O)(c2ccc(Cl)cc2)CC1)(c1ccccc1)c1ccccc1 [LOPERAMIDE] ; what IC50 value has been reported?
Result: 67 µM

Task: Dear colleague, I am looking for the recorded IC50 of the following compound: CCc1nn(CCCN2CCN(c3cccc(Cl)c3)CC2)c(=O)n1CCOc1ccccc1 [NEFAZODONE]
Result: 7 µM

Task: Which IC50 value belongs to O=C(O)Cc1ccccc1Nc1c(Cl)cccc1Cl [DICLOFENAC] ?
Result: 44 µM

Task: Request the reported IC50 associated with CCc1oc2ccccc2c1C(=O)c1cc(Br)c(O)c(Br)c1 [BENZBROMARONE]
Result: 15.9 µM

Task: Reported IC50, compound CCOC(=O)c1ncn2c1CN(C)C(=O)c1cc(F)ccc1-2 [FLUMAZENIL] : ____
Result: > 100 µM

Task: Look up IC50 for this compound: CC(CCc1ccc(O)cc1)NCCc1ccc(O)c(O)c1 (centres undefined) [DOBUTAMINE]
Result: > 100 µM

Task: Need IC50, item C#C[C@]1(OC(C)=O)CC[C@H]2[C@@H]3CCC4=C[C@@H](OC(C)=O)CC[C@@H]4[C@H]3CC[C@@]21C [ETHYNODIOL DIACETATE]
Result: 62 µM

Task: Record request: IC50 value, item Cc1cccc(Nc2ccccc2C(=O)O)c1C [MEFENAMIC ACID]
Result: 57 µM

Task: GET /values?readout=IC50&item= O=C1C(CC[S+]([O-])c2ccccc2)C(=O)N(c2ccccc2)N1c1ccccc1 (centres undefined) [SULFINPYRAZONE]
Result: 11 µM

Task: Data request, read-out IC50, for O=C1CC2(CCCC2)CC(=O)N1CCCCN1CCN(c2ncccn2)CC1 [BUSPIRONE]
Result: > 100 µM

Task: Query (compound): CCC1=C(C)CN(C(=O)NCCc2ccc(S(=O)(=O)NC(=O)N[C@H]3CC[C@H](C)CC3)cc2)C1=O [GLIMEPIRIDE] ; field requested: IC50
Result: 34 µM

Task: Item under review: C[C@H](CCC(=O)O)[C@H]1CC[C@H]2[C@@H]3[C@H](O)C[C@@H]4C[C@H](O)CC[C@]4(C)[C@H]3CC[C@]12C [CHENODIOL] . Reported IC50?
Result: 10.6 µM

Task: # input compound: CO[C@H]1/C=C/O[C@@]2(C)Oc3c(C)c(O)c4c(O)c(c(/C=N/N5CCN(C)CC5)c(O)c4c3C2=O)NC(=O)/C(C)=C\C=C\[C@H](C)[C@H](O)[C@@H](C)[C@@H](O)[C@@H](C)[C@H](OC(C)=O)[C@@H]1C [RIFAMPIN] ; wanted: its IC50
Result: 18.7 µM

Task: Fill in: IC50 of CO[C@H]1/C=C/O[C@@]2(C)Oc3c(C)c(O)c4c(O)c(cc(O)c4c3C2=O)NC(=O)/C(C)=C\C=C\[C@H](C)[C@H](O)[C@@H](C)[C@@H](O)[C@@H](C)[C@H](OC(C)=O)[C@@H]1C [RIFAMYCIN] is ___
Result: 9.5 µM

Task: Entry COC(=O)C1=C(C)NC(C)=C(C(=O)OC)C1c1ccccc1[N+](=O)[O-] [NIFEDIPINE] : reported IC50 = ?
Result: 69 µM

Task: Item COc1ccccc1Oc1c(NS(=O)(=O)c2ccc(C(C)(C)C)cc2)nc(-c2ncccn2)nc1OCCO [BOSENTAN] has what recorded IC50?
Result: 29 µM

Task: Any idea what IC50 was measured for C[C@H]1C[C@H]2[C@@H]3CCC4=CC(=O)C=C[C@]4(C)[C@@]3(Cl)[C@@H](O)C[C@]2(C)[C@@]1(O)C(=O)CO [BECLOMETHASONE] ?
Result: 10.3 µM

Task: Tell me the measured IC50 of CC(C)OC(=O)C(C)(C)Oc1ccc(C(=O)c2ccc(Cl)cc2)cc1 [FENOFIBRATE] , please.
Result: 41 µM

Task: Dear colleague, I am looking for the recorded IC50 of the following compound: Oc1ncnc2[nH]ncc12 [ALLOPURINOL]
Result: > 100 µM

Task: Which IC50 is listed for O=c1n(CCCN2CCN(c3cccc(Cl)c3)CC2)nc2ccccn12 [TRAZODONE] ?
Result: 90 µM

Task: Quick check: IC50 of CC[C@H]1OC(=O)[C@H](C)C(=O)[C@H](C)[C@@H](O[C@@H]2O[C@H](C)C[C@H](N(C)C)[C@H]2O)[C@](C)(OC)C[C@@H](C)C(=O)[C@H](C)[C@H]2N(CCCCn3cnc(-c4cccnc4)c3)C(=O)O[C@]12C [TELITHROMYCIN] ?
Result: 30 µM

Task: # lookup: IC50 of CC(C)C(=O)Nc1ccc([N+](=O)[O-])c(C(F)(F)F)c1 [FLUTAMIDE]
Result: 68 µM
